Test system: M14 melanoma
Assay: NCI-60 one-dose screen, 48 h (100 = growth as untreated, 0 = no growth, -100 = all killed)
Details: 10 µM unless noted
This is part of a sample that, as a whole, favours compounds with a hit. Of some 83,000 tested, about 20% had one in any assay.
parameter-measured: growth (%)
Numbers only, in %.

Example entries begin here.
- molecule: "CCOC(=O)/C(=C\\c1ccc2ccccc2c1)P(=O)(OCC)OCC"
  assayed-target: "M14 melanoma"
  growth / %: 31.7
- molecule: "O=C1C(=O)c2cccnc2-c2ncccc21"
  assayed-target: "M14 melanoma"
  growth / %: -92.6
- molecule: "CCNc1nnnn1CC"
  assayed-target: "M14 melanoma"
  growth / %: 104
- molecule: "NC1=C(Br)C(=O)c2ncccc2C1=O"
  assayed-target: "M14 melanoma"
  growth / %: -88.7
- molecule: "CN(C)c1ccc2cc3c(cc2c1)Oc1ccccc1N3.[Cl][Zn][Cl]"
  assayed-target: "M14 melanoma"
  growth / %: 102

Value sought for every listed molecule: growth.
1. Cc1oc2c(C)c3oc(=O)cc(C)c3cc2c1CCl
2. Clc1ccccc1C(c1ccccc1)(c1ccccc1)n1ccnc1

Result:
1. 93.2
2. 31

---

For each entry below, report its growth value.
Test system: SN12C renal
Assay: NCI-60 one-dose screen, 48 h (100 = growth as untreated, 0 = no growth, -100 = all killed)
Settings: 10 µM unless noted
About 83,000 compounds went through this panel and 20% of them were active in at least one assay; those are over-represented in the sample as a whole.
Numbers only, in %.

Example entries begin here.
- compound: "O=S(=O)(O)c1cnccn1"
  unit-string: "%"
  growth: 103
- compound: "CCCCCCCCCCCC[S+](C)CC(=O)[O-] (stereo not drawn)"
  unit-string: "%"
  growth: 13.7

Please examine the following record next.
Task: Look up growth with SN12C renal for this compound: S=C=Nc1ccc(N2CCOCC2)cc1
Result: 104

---

Tested on: HCT-15 colon
Assay: NCI-60 one-dose screen, 48 h (100 = growth as untreated, 0 = no growth, -100 = all killed)
Conditions: 10 µM unless noted
About 83,000 compounds went through this panel and 20% of them were active in at least one assay; those are over-represented in the sample as a whole. Activity calls are given as the source filed them. How the source made its calls: active means growth percent below 10; inactive means the rest.
For each entry below, report its growth value.

Example entries begin here.
- compound: "CCCCCCCCCCCC[n+]1ccc2ccccc2c1"
  endpoint-result: "25% (inactive)"
- compound: "Cc1ccc(/C=C2\\CNC/C(=C\\c3ccc(C)cc3)C2=O)cc1"
  endpoint-result: "-33.8% (active)"
- compound: "CN(C)c1ccc2cc3c(cc2c1)Oc1ccccc1N3.[Cl][Zn][Cl]"
  endpoint-result: "48.5% (inactive)"
- compound: "C[n+]1ccccc1C[n+]1ccccc1"
  endpoint-result: "110% (inactive)"
- compound: "O=C(Cc1nc2cc(Cl)c(Cl)cc2nc1CC(=O)c1cccnc1)c1cccnc1"
  endpoint-result: "57.2% (inactive)"

Value sought for every listed compound: growth.
1. NC(=S)N/N=C\c1nccc2c(C(F)(F)F)cccc12
2. COc1ccc2nc3cc(Cl)ccc3c(NCCCCCN3CCCCC3)c2c1
3. CCN(CC)c1ccc(/C=C\C(=O)c2ccc(NC(C)=O)cc2)cc1
4. O=C(CBr)c1ccc(OC(=O)c2ccccc2)cc1
5. CCC(C)C(N)C(=O)NC(CC(N)=O)C(=O)NC(CC(C)C)C(=O)NC(CCCCN)C(=O)NC(C)C(=O)NC(CC(C)C)C(=O)NC(C)C(=O)NC(C)C(=O)NC(CC(C)C)C(=O)NC(C)C(=O)NC(CCCCN)C(=O)NC(CCCCN)C(=O)NC(C(=O)NC(CC(C)C)C(N)=O)C(C)CC (stereo unspecified)

Result:
1. 28.6% (inactive)
2. -32.2% (active)
3. 45.6% (inactive)
4. 101% (inactive)
5. 101% (inactive)

Value sought for every listed compound: growth.
1. Cc1cc(C(N)=O)cc(C)c1C(=O)OCCCl
2. Cc1onc(-c2ccccc2)c1C(=O)N/N=C/c1cc(Cl)cc(Cl)c1O
3. COc1ccc2c(c1)c(CC(=O)O)c(C)n2C(=O)c1ccc(Cl)cc1
4. O=C(NNc1ccccc1)OCc1ccccc1
5. COC(=O)Nc1nc2ccc(C3(c4ccc(F)cc4)OCCO3)cc2[nH]1
6. CC(=O)c1ccc2c(c1)CCc1ccccc1-2

Result:
111% (inactive)
25.6% (inactive)
104% (inactive)
73% (inactive)
25.9% (inactive)
93.9% (inactive)

Value sought for every listed compound: growth.
1. COC(=O)C(=[N+]=[N-])C(=O)c1ccc([N+](=O)[O-])o1
2. O=C1C=CC(=O)c2c(O)c(CO)c(CO)c(O)c21
3. c1ccc2sc(SSN3CC4CCC(CC4)C3)nc2c1

Result:
["10.5% (inactive)", "37.8% (inactive)", "110% (inactive)"]

Value sought for every listed compound: growth.
1. Cc1ccc(N2C(=O)C=CC2=O)cc1
2. CCCCCCCCCCCCSC(=N)N

Result:
114% (inactive)
-21.4% (active)
